System: HCI-001 (organoid from a triple-negative breast cancer xenograft)
Assay: CTG-3D luminescence at 96 h relative to day-0 seeding control (ratio to day 0); higher = more growth / less cytotoxicity; PDxO 3D drug screen, 96 h, CTG-3D normalised to day-0 seeding control.
Details: 0.1 µM; days in culture: 364
Experimental endpoint: CTG-3D luminescence at 96 h
Note: the reply should be a number with no unit written.

Field: example entries. Status: answers known.
Problem: What value of measured CTG-3D luminescence at 96 h is listed for C[C@H](NC(=O)CCC(F)(F)F)C(=O)N[C@@H]1C(=O)N(CCO)c2ncccc2-c2ccccc21 [crenigacestat] ?
Solution: 1

Problem: How about O=C(/C=C/c1cccnc1)NCCCCC1CCN(C(=O)c2ccccc2)CC1 [FK866] ?
Solution: 0.0658

Continuing:
Problem: // lookup CTG-3D luminescence at 96 h for NC(=O)c1cccc2cn(-c3ccc([C@@H]4CCCNC4)cc3)nc12 [niraparib]
Solution: 1.33

Problem: Try this compound too: C=CCn1c(=O)c2cnc(Nc3ccc(N4CCN(C)CC4)cc3)nc2n1-c1cccc(C(C)(C)O)n1 [adavosertib]
Solution: 1.17

====

System: HCI-027 (organoid from a triple-negative breast cancer xenograft)
Experiment: CTG-3D luminescence at 96 h relative to day-0 seeding control (ratio to day 0); higher = more growth / less cytotoxicity; PDxO 3D drug screen, 96 h, CTG-3D normalised to day-0 seeding control.
Details: 625 fM; days in culture: 201
Experimental endpoint: CTG-3D luminescence at 96 h
# print the numeric value only

Problem: Item under review: `Cc1cc(Nc2ncnc3ccc(NC4=NC(C)(C)CO4)cc23)ccc1Oc1ccn2ncnc2c1` . Reported CTG-3D luminescence at 96 h?
Solution: 2.42

Problem: `CCc1c2c(nc3ccc(O)cc13)-c1cc3c(c(=O)n1C2)COC(=O)[C@]3(O)CC` ?
Solution: 2.46

Problem: `O=C(O)C1(C(=O)O)CCC1.[NH2-].[NH2-].[Pt+2]` ?
Solution: 1.71

Proceeding to the next compound to report its CTG-3D luminescence at 96 h.
Problem: # input compound: `Cc1nc(-c2cn3c(n2)-c2ccc(-c4cnn(C(C)(C)C(N)=O)c4)cc2OCC3)n(C(C)C)n1` ; wanted: its CTG-3D luminescence at 96 h
Solution: 2.81

====

Tested on: HCI-002 (organoid from a triple-negative breast cancer xenograft)
Experiment: CTG-3D luminescence at 96 h relative to day-0 seeding control (ratio to day 0); higher = more growth / less cytotoxicity; PDxO 3D drug screen, 96 h, CTG-3D normalised to day-0 seeding control.
Conditions: 10 µM; days in culture: 91
Experimental endpoint: CTG-3D luminescence at 96 h
Simply state the number, no unit and no words.

Below: 5 compounds and their reported CTG-3D luminescence at 96 h.
Problem: Which CTG-3D luminescence at 96 h is reported for this compound? NC1(C(=O)N[C@@H](CCO)c2ccc(Cl)cc2)CCN(c2nc[nH]c3nccc2-3)CC1 [capivasertib]
Solution: 3.16

Problem: Same question, COc1cccc2c1C(=O)c1c(O)c3c(c(O)c1C2=O)C[C@@](O)(C(=O)CO)C[C@@H]3O[C@H]1C[C@H](N)[C@H](O)[C@H](C)O1 [doxorubicin] this time
Solution: 0.0844

Problem: Field entry: C=CC(=O)N1CCC[C@@H](n2nc(-c3ccc(Oc4ccccc4)cc3)c3c(N)ncnc32)C1 [ibrutinib]
Solution: 1.75

Problem: Follow-up item: CCN1CCN(Cc2ccc(Nc3ncc(F)c(-c4cc(F)c5nc(C)n(C(C)C)c5c4)n3)nc2)CC1 [abemaciclib]
Solution: 1.95

Problem: Entry COc1cc2c(Oc3ccc4[nH]c(C)cc4c3F)ncnc2cc1OCCCN1CCCC1 [cediranib] please
Solution: 0.0389

***
Problem: CTG-3D luminescence at 96 h lookup needed for CC(C)n1nc(-c2ccc3oc(N)nc3c2)c2c(N)ncnc21 [sapanisertib] , thanks.
Solution: 0.697

Problem: Same again, this time with CCc1c2c(nc3ccc(O)cc13)-c1cc3c(c(=O)n1C2)COC(=O)[C@]3(O)CC [SN-38]
Solution: 0.0365

Problem: Same read-out for NC(=O)c1cccc2cn(-c3ccc([C@@H]4CCCNC4)cc3)nc12 [niraparib] ?
Solution: 0.377
